- System: OVCAR-8
- TEST PROTOCOL: NCI tumour cell line growth inhibition, 48 h
Activity calls are given as the source filed them. Cut-off read from the data, not from the text of the source: active = GI50 up to about 1.1 µM and inactive = higher.
Valid outcomes are listed here; reply with one: active, inactive

// known answers, use as guide
Cc1cc(=O)oc2c(CNC(Cc3ccccc3)C(=O)O)c(O)ccc12 (centres undefined)    inactive
CNC(=S)NNc1ncnc2c1c(-c1ccc(Cl)cc1)cn2-c1ccc(C)cc1    inactive

How was `Cc1noc(C)c1/N=N/c1ccc2nonc2c1N` classified in this test? inactive

----------
Entries and their GI50
- System: NCI-H460
- TEST PROTOCOL: NCI tumour cell line growth inhibition, 48 h
Activity calls are given as the source filed them. Cut-off read from the data, not from the text of the source: active = GI50 up to about 1.1 µM and inactive = higher.

Below, 2 molecules whose answers are already recorded.
O=C(/C=C/c1ccc(OCc2ccccc2)cc1)NCc1ccc(C(=O)NCCc2ccccc2)cc1    > 100 µM (inactive)
C=C(CS(=O)(=O)c1ccccc1)C(=O)OCC    18.7 µM (inactive)

Would you mind telling me what GI50 value was observed for `O=C(NNC(=S)NCc1ccccc1)C12CC3CC(CC(C3)C1)C2` ? 36.3 µM (inactive)

Please give the result for CCOC(=O)NC(Nc1ccc(S(=O)(=O)Nc2ncccn2)cc1)(C(=O)OCC)C(F)(F)F (stereo not given) too. > 100 µM (inactive)

Next: CCOC(=O)c1c(-c2cccc3ccccc23)c(C#N)c(=S)n(C2OC(COC(C)=O)C(OC(C)=O)C(OC(C)=O)C2OC(C)=O)c1C (stereo not given) > 100 µM (inactive)

Entry `CO/C=C/C=C(\C#N)C(=O)OC` please > 100 µM (inactive)

Repeat for the following molecule: `NS(=O)(=O)c1ccc(N=C2C(=O)Nc3ccccc32)cc1` > 100 µM (inactive)

Please do the same for `CN(C)CCSc1nccc(-c2ccc(-c3ccnc(SCCN(C)C)n3)s2)n1` as well. 3.01 µM (inactive)

Next molecule up: C=CCCCCCCCCCCCC1CCC(CC)N1 (stereo not given) 17.7 µM (inactive)

CC(=O)O/C=C\OC1CCCC1(c1ccccc1)c1ccccc1 (stereo not given) , same question. 7.26 µM (inactive)

----------
- System: SK-MEL-28
- TEST PROTOCOL: NCI tumour cell line growth inhibition, 48 h
Calls of active or inactive are those of the source. No stated cut-off is given here; in the data, active = GI50 up to about 1.1 µM and inactive = higher.
RESULT TYPE: GI50

C/C(=N\O)C(CN1CCCCC1)C(c1ccccc1)c1c(O)c2ccccc2oc1=O (configuration not stated)    > 100 µM (inactive)
CC(C)=CCC[C@H](C)[C@H]1CC[C@@H](C)c2cc(O)c(C)cc21    18.5 µM (inactive)
Cc1nc2cccc([N+](=O)[O-])c2c(NCCCN(C)C)c1C    > 100 µM (inactive)

Would you kindly share the measured GI50 for `Cn1c2c(c3ccccc31)CCN(CCCCN1CCCCC1)C2=O` ? 16.8 µM (inactive)

Moving on to CCOC(=O)C1=C(C)NC(=O)NC1c1ccc(N(CCCl)CCCl)cc1Cl (configuration not stated) 17.6 µM (inactive)

What do we get for `CCCCCN(CCCCC)C(=O)[C@H](CCC(=O)O)NC(=O)c1cc2ccccc2[nH]1` ? 29.8 µM (inactive)

Moving on to the next compound: `c1ccc2oc(-c3ccc(-c4nc5ccccc5o4)c4c3CC4)nc2c1` > 100 µM (inactive)

# repeat for `c1cncc(CNCc2cccnc2)c1` > 100 µM (inactive)
